Target: FhuA ΔC/Δ5L (Escherichia coli, UniProt P06971, DEL561-566/INS560[…], form not given)
Sequence (P06971 194-747, stated change not applied): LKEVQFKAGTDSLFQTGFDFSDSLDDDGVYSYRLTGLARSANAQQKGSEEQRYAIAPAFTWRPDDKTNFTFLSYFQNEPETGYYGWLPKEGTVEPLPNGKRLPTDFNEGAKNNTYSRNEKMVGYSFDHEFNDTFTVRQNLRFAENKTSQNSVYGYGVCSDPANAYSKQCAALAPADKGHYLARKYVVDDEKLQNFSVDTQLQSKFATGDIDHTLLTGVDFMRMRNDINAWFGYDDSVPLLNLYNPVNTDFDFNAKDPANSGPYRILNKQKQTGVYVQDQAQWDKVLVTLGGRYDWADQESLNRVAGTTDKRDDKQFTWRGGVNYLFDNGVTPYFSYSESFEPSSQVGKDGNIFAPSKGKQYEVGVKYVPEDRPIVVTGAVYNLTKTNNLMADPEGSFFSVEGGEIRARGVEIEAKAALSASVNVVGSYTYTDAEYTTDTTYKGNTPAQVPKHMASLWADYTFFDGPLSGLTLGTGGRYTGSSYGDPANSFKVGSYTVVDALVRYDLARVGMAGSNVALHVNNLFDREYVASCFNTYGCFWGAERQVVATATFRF
Settings: read-out: Kd (apparent dissociation constant); midpoint of dose-dependent dissociation phase; 200 mM NaCl, 50 mM HEPES, pH 7.4, 24°C
pKd: −log10 of the molar value.
Listing of entries alongside the reported pKd.
RECORDED ENDPOINT: pKd

{"COMPOUND": "OC[C@H]1O[C@H](O[C@H]2[C@H](O)[C@@H](O)[C@H](OCCCCC3CCCCC3)O[C@@H]2CO)[C@H](O)[C@@H](O)[C@@H]1O [CYMAL-4, 4-cyclohexyl-1-Butyl-β-D-maltoside]", "RECORDED ENDPOINT": "pKd", "RECORDED VALUE": 2.28}
{"COMPOUND": "CCCCCCCCCCO[C@@H]1O[C@H](CO)[C@@H](O[C@H]2O[C@H](CO)[C@@H](O)[C@H](O)[C@H]2O)[C@H](O)[C@H]1O [DM, n-decyl-β-D-maltoside]", "RECORDED ENDPOINT": "pKd", "RECORDED VALUE": 2.77}
{"COMPOUND": "CCCCCCCCO[C@@H]1O[C@H](CO)[C@@H](O)[C@H](O)[C@H]1O [OG, n-octyl-β-D-glucoside]", "RECORDED ENDPOINT": "pKd", "RECORDED VALUE": 1.89}
{"COMPOUND": "C[C@H](CCC(=O)NCCC[N+](C)(C)CCCS(=O)(=O)[O-])[C@H]1CC[C@H]2[C@@H]3[C@H](O)C[C@@H]4C[C@H](O)CC[C@]4(C)[C@H]3C[C@H](O)[C@]12C", "RECORDED ENDPOINT": "pKd", "RECORDED VALUE": 2.48}

* * *

pKd: recorded values
Biological target: FhuA ΔC/Δ7L_30N (Escherichia coli, UniProt P06971)
Sequence (P06971 194-747, stated change not applied): as above
Settings: read-out: Kd (apparent dissociation constant); midpoint of dose-dependent dissociation phase; 200 mM NaCl, 50 mM HEPES, pH 7.4, 24°C
pKd: −log10 of the molar value.

{"COMPOUND": "CCCCCCCCCCO[C@@H]1O[C@H](CO)[C@@H](O[C@H]2O[C@H](CO)[C@@H](O)[C@H](O)[C@H]2O)[C@H](O)[C@H]1O [DM, n-decyl-β-D-maltoside]", "pKd": 3.05}
{"COMPOUND": "OC[C@H]1O[C@H](O[C@H]2[C@H](O)[C@@H](O)[C@H](OCCCCC3CCCCC3)O[C@@H]2CO)[C@H](O)[C@@H](O)[C@@H]1O [CYMAL-4, 4-cyclohexyl-1-Butyl-β-D-maltoside]", "pKd": 2.35}

* * *

Target: basic β-barrel proteins
Experiment: steady-state FP anisotropy, detergent desolvation, basic β barrels
Details: physiological pH
pKd: −log10 of the molar value.
RECORDED ENDPOINT: pKd

{"COMPOUND": "CCCCCCCCCCO[C@@H]1O[C@H](CO)[C@@H](O[C@H]2O[C@H](CO)[C@@H](O)[C@H](O)[C@H]2O)[C@H](O)[C@H]1O [DM, n-decyl-β-D-maltoside]", "RECORDED ENDPOINT": "pKd", "RECORDED VALUE": "~3.05"}

* * *

Biological target: FhuA ΔC/Δ5L (Escherichia coli, UniProt P06971, DEL561-566/INS560[…], form not given)
Type: binding, E. coli
Settings: maximum anisotropy at detergent concentrations above the CMC; 200 mM NaCl, 50 mM HEPES, pH 7.4
RECORDED ENDPOINT: rmax

{"MOLECULE": "OC[C@H]1O[C@H](O[C@H]2[C@H](O)[C@@H](O)[C@H](OCCCCC3CCCCC3)O[C@@H]2CO)[C@H](O)[C@@H](O)[C@@H]1O [CYMAL-4, 4-cyclohexyl-1-Butyl-β-D-maltoside]", "RECORDED ENDPOINT": "rmax", "RECORDED VALUE": "0.367 ± 0.001"}
{"MOLECULE": "CCCCCCCCCCO[C@@H]1O[C@H](CO)[C@@H](O[C@H]2O[C@H](CO)[C@@H](O)[C@H](O)[C@H]2O)[C@H](O)[C@H]1O [DM, n-decyl-β-D-maltoside]", "RECORDED ENDPOINT": "rmax", "RECORDED VALUE": "0.360 ± 0.001"}
{"MOLECULE": "CCCCCCCCO[C@@H]1O[C@H](CO)[C@@H](O)[C@H](O)[C@H]1O [OG, n-octyl-β-D-glucoside]", "RECORDED ENDPOINT": "rmax", "RECORDED VALUE": "0.291 ± 0.002"}
{"MOLECULE": "C[C@H](CCC(=O)NCCC[N+](C)(C)CCCS(=O)(=O)[O-])[C@H]1CC[C@H]2[C@@H]3[C@H](O)C[C@@H]4C[C@H](O)CC[C@]4(C)[C@H]3C[C@H](O)[C@]12C", "RECORDED ENDPOINT": "rmax", "RECORDED VALUE": "0.292 ± 0.004"}

* * *

Target: FhuA ΔC/Δ5L (Escherichia coli, UniProt P06971, DEL561-566/INS560[…], form not given)
Format: binding, E. coli
Conditions: four-parameter Hill fit; 200 mM NaCl, 50 mM HEPES, pH 7.4, 24°C

{"COMPOUND": "C[C@H](CCC(=O)NCCC[N+](C)(C)CCCS(=O)(=O)[O-])[C@H]1CC[C@H]2[C@@H]3[C@H](O)C[C@@H]4C[C@H](O)CC[C@]4(C)[C@H]3C[C@H](O)[C@]12C", "p (Hill coefficient)": "1.7 ± 0.6"}
{"COMPOUND": "OC[C@H]1O[C@H](O[C@H]2[C@H](O)[C@@H](O)[C@H](OCCCCC3CCCCC3)O[C@@H]2CO)[C@H](O)[C@@H](O)[C@@H]1O [CYMAL-4, 4-cyclohexyl-1-Butyl-β-D-maltoside]", "p (Hill coefficient)": "3.7 ± 0.1"}
{"COMPOUND": "CCCCCCCCO[C@@H]1O[C@H](CO)[C@@H](O)[C@H](O)[C@H]1O [OG, n-octyl-β-D-glucoside]", "p (Hill coefficient)": "5.3 ± 0.9"}
{"COMPOUND": "CCCCCCCCCCO[C@@H]1O[C@H](CO)[C@@H](O[C@H]2O[C@H](CO)[C@@H](O)[C@H](O)[C@H]2O)[C@H](O)[C@H]1O [DM, n-decyl-β-D-maltoside]", "p (Hill coefficient)": "3.5 ± 0.5"}

* * *

Target: FhuA ΔC/Δ7L_30N (Escherichia coli, UniProt P06971)
Assay type: binding, E. coli
Conditions: minimum anisotropy, extrapolated for the lowest detergent concentration; 200 mM NaCl, 50 mM HEPES, pH 7.4
The entries below come with measured rmin values attached.
RECORDED ENDPOINT: rmin

{"COMPOUND": "C[C@H](CCC(=O)NCCC[N+](C)(C)CCCS(=O)(=O)[O-])[C@H]1CC[C@H]2[C@@H]3[C@H](O)C[C@@H]4C[C@H](O)CC[C@]4(C)[C@H]3C[C@H](O)[C@]12C", "RECORDED ENDPOINT": "rmin", "RECORDED VALUE": "~0.16"}
{"COMPOUND": "CCCCCCCCO[C@@H]1O[C@H](CO)[C@@H](O)[C@H](O)[C@H]1O [OG, n-octyl-β-D-glucoside]", "RECORDED ENDPOINT": "rmin", "RECORDED VALUE": "~0.15"}
{"COMPOUND": "OC[C@H]1O[C@H](O[C@H]2[C@H](O)[C@@H](O)[C@H](OCCCCC3CCCCC3)O[C@@H]2CO)[C@H](O)[C@@H](O)[C@@H]1O [CYMAL-4, 4-cyclohexyl-1-Butyl-β-D-maltoside]", "RECORDED ENDPOINT": "rmin", "RECORDED VALUE": "0.168 ± 0.025"}
{"COMPOUND": "CCCCCCCCCCO[C@@H]1O[C@H](CO)[C@@H](O[C@H]2O[C@H](CO)[C@@H](O)[C@H](O)[C@H]2O)[C@H](O)[C@H]1O [DM, n-decyl-β-D-maltoside]", "RECORDED ENDPOINT": "rmin", "RECORDED VALUE": "0.168 ± 0.007"}

* * *

Molecular target: OmpG (Escherichia coli, UniProt P76045, D245C)
Sequence (P76045 22-301 D245C): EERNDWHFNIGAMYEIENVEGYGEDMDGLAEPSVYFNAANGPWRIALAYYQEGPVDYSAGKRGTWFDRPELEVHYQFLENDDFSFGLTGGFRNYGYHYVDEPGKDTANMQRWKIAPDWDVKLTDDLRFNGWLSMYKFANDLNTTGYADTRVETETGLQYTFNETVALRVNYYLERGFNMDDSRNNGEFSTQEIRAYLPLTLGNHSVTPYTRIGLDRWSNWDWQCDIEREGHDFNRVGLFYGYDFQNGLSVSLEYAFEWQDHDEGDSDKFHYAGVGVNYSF
Experiment: biochemical
Format: binding, E. coli
Settings: maximum anisotropy at detergent concentrations above the CMC; 200 mM NaCl, 50 mM HEPES, pH 7.4
RECORDED ENDPOINT: rmax

{"MOLECULE": "CCCCCCCCO[C@@H]1O[C@H](CO)[C@@H](O)[C@H](O)[C@H]1O [OG, n-octyl-β-D-glucoside]", "RECORDED VALUE": 0.306}
{"MOLECULE": "C[C@H](CCC(=O)NCCC[N+](C)(C)CCCS(=O)(=O)[O-])[C@H]1CC[C@H]2[C@@H]3[C@H](O)C[C@@H]4C[C@H](O)CC[C@]4(C)[C@H]3C[C@H](O)[C@]12C", "RECORDED VALUE": 0.318}
{"MOLECULE": "OC[C@H]1O[C@H](O[C@H]2[C@H](O)[C@@H](O)[C@H](OCCCCC3CCCCC3)O[C@@H]2CO)[C@H](O)[C@@H](O)[C@@H]1O [CYMAL-4, 4-cyclohexyl-1-Butyl-β-D-maltoside]", "RECORDED VALUE": 0.326}
{"MOLECULE": "CCCCCCCCCCO[C@@H]1O[C@H](CO)[C@@H](O[C@H]2O[C@H](CO)[C@@H](O)[C@H](O)[C@H]2O)[C@H](O)[C@H]1O [DM, n-decyl-β-D-maltoside]", "RECORDED VALUE": 0.327}
